# Tested target: Cdr1 (Candida albicans, UniProt Q5ANA3)
# Sequence (Q5ANA3 whole entry): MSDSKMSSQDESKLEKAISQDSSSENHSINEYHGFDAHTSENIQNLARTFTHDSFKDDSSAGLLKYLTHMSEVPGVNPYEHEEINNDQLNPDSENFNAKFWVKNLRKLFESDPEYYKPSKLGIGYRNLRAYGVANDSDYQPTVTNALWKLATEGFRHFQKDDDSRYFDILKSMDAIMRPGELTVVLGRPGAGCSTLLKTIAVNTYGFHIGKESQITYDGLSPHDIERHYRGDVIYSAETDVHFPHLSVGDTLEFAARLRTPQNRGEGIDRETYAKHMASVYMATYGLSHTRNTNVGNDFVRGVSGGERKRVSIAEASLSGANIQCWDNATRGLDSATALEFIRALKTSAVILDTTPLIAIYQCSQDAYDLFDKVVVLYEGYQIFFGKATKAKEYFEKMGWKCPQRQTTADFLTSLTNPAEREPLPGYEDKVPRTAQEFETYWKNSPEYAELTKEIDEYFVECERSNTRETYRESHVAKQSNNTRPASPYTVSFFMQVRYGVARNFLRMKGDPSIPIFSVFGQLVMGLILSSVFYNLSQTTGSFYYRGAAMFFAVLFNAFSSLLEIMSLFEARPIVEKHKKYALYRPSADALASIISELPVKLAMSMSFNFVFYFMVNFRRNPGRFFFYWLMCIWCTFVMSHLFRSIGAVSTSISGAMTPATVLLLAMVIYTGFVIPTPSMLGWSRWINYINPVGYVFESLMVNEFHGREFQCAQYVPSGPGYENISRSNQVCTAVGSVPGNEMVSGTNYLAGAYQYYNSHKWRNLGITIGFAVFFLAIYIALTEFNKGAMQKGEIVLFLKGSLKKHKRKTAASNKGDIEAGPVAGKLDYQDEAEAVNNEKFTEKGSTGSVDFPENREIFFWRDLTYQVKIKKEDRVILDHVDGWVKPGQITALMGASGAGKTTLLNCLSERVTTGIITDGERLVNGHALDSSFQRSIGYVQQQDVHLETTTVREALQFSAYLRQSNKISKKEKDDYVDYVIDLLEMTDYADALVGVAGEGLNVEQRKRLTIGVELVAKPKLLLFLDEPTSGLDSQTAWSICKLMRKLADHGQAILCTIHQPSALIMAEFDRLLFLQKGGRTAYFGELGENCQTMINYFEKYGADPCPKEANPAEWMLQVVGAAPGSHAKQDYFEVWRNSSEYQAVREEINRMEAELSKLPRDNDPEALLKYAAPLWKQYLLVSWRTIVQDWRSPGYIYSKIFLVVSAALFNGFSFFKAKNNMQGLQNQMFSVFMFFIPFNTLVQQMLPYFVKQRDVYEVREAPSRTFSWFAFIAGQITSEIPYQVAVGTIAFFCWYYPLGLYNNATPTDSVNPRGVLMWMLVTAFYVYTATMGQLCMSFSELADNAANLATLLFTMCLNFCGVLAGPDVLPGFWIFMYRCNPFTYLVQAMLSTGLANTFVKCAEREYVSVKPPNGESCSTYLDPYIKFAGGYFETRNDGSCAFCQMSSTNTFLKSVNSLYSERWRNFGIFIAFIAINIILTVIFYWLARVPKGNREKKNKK
pKd: −log10 of the molar value.

| Smiles input | pKd |
| --- | --- |
| O=C1OC2(c3cc(F)c(O)cc3Oc3cc(O)c(F)cc32)c2ccccc21 | 4.48 |
| CCN=c1cc2oc3cc(NCC)c(C)cc3c(-c3ccccc3C(=O)OCC)c-2cc1C | 4.22 |

Data origin, for the record: paper doi:10.1101/2024.10.28.620768v1
